- EXPERIMENTAL_SYSTEM: Monoamineoxidase B type human-derived enzyme (Homo sapiens, UniProt P27338)
- Sequence (P27338 whole entry): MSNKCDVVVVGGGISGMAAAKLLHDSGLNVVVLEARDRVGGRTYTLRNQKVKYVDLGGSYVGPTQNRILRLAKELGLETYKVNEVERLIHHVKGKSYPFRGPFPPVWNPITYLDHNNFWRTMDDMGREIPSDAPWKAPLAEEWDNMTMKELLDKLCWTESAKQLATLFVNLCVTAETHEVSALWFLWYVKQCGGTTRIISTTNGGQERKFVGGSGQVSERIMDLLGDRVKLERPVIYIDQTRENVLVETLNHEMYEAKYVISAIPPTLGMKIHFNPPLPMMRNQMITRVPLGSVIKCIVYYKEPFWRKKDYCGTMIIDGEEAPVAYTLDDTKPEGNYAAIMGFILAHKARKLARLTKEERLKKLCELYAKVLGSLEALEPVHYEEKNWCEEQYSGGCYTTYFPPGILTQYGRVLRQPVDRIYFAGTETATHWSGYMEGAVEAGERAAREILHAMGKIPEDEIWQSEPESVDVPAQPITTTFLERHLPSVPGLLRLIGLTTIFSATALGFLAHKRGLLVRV
- TEST_NAME: Inhibitory effects on the activity of MAO-B (Amplex Red fluorescence, benzylamine substrate)
- Type: biochemical
- STUDY_CONDITIONS: treatment concentration 10 nM; read-out: Inhibitory effects (%) on the activity of MAO-B
MEASURE_NAME: inhibition at 0.01 µM (%)
Numbers only, in %.

Look at each compound and report its inhibition at 0.01 µM.
1. NC(=O)OCc1cc(-c2ccc(OCc3cc(F)cc(F)c3)cc2)no1 [Example 16]
2. NC(=O)OCc1cc(-c2ccc(NCc3ccc(F)cc3F)cc2)no1 [Example 81]
3. NC(=O)OCc1cc(-c2ccc(NCc3ccc(F)cc3)cc2)no1 [Example 76]
4. C#CCN(C)Cc1cc(-c2ccc(OCc3ccccc3)cc2)no1 [Example 178]
5. CC(OC(N)=O)c1cc(-c2ccc(OCc3ccccc3)cc2)no1 (stereo not drawn) [Example 117]

96.5
91.4
87
64
68.5

Parameter requested: inhibition at 0.01 µM. Apply to each item below.
1. c1ccc(COc2ccc(-c3cc(Cn4ccnc4)on3)cc2)cc1 [Example 139]
2. C=CCNCc1cc(-c2ccc(OCc3ccccc3)cc2)no1 [Example 176]
3. COc1c(C)cc(COc2ccc(-c3cc(COC(N)=O)on3)cc2)nc1C [Example 68]

1. 84.6
2. 71.5
3. 63.4

Any idea what its inhibition at 0.01 µM is? The compound is CC(C)c1nccn1Cc1cc(-c2ccc(OCc3ccccc3)cc2)no1 [Example 179]
26.7

Source: patent US8828992B2
